tested on: analgesic activity of morphine; experiment: Tail Flick Test: increase in the analgesic effect of morphine; format: in vivo, rats; conditions: 10'; compound 10 mg/kg i.p. + morphine 2 mg/kg (row Morphine: alone); ± S.E.
The following molecules are listed with their measured percentage variation in the latency of the pain sensation, 10' values.
Quantity Measured: percentage variation in the latency of the pain sensation, 10' (%)

{"Molecule": "CCCCCCCc1ccc(C(=O)N[C@@H](Cc2c[nH]c3ccccc23)C(=O)O)cc1", "Display Unit": "%", "Measured Result": 73.8}
{"Molecule": "O=C(N[C@@H](Cc1c[nH]c2ccccc12)C(=O)O)OC(c1ccccc1)c1ccccc1", "Display Unit": "%", "Measured Result": 100.0}
{"Molecule": "CCCCCCCCCc1ccc(C(=O)N[C@@H](Cc2c[nH]c3ccccc23)C(=O)O)cc1", "Display Unit": "%", "Measured Result": 79.5}
{"Molecule": "O=C(N[C@@H](Cc1c[nH]c2ccccc12)C(=O)O)c1ccc(Cl)c(Cl)c1", "Display Unit": "%", "Measured Result": 96.9}
{"Molecule": "CN1CC[C@]23c4c5ccc(O)c4O[C@H]2[C@@H](O)C=C[C@H]3[C@H]1C5 [Morphine, morphine, reference compound]", "Display Unit": "%", "Measured Result": 10.8}
{"Molecule": "CC(C)Cc1ccc(C(=O)N[C@@H](Cc2c[nH]c3ccccc23)C(=O)O)cc1", "Display Unit": "%", "Measured Result": 66.9}
{"Molecule": "Cc1ccc(C(=O)N[C@@H](Cc2c[nH]c3ccccc23)C(=O)O)cc1", "Display Unit": "%", "Measured Result": 7.8}
{"Molecule": "O=C(N[C@@H](Cc1c[nH]c2ccccc12)C(=O)O)c1cccc(Cl)c1", "Display Unit": "%", "Measured Result": 25.2}

* * *

tested on: analgesic activity of morphine; assay: Tail Flick Test: increase in the analgesic effect of morphine; type: in vivo, rats; conditions: 20'; compound 10 mg/kg i.p. + morphine 2 mg/kg (row Morphine: alone); ± S.E.
Quantity Measured: percentage variation in the latency of the pain sensation, 20' (%)

{"Structure Smiles String": "O=C(N[C@@H](Cc1c[nH]c2ccccc12)C(=O)O)OCc1ccc(C(F)(F)F)cc1", "Measured Result": 34.4}
{"Structure Smiles String": "O=C(N[C@@H](Cc1c[nH]c2ccccc12)C(=O)O)c1ccc(Cl)c(Cl)c1", "Measured Result": 100.0}
{"Structure Smiles String": "CC(C)c1ccc(C(=O)N[C@@H](Cc2c[nH]c3ccccc23)C(=O)O)cc1", "Measured Result": 33.1}
{"Structure Smiles String": "CCCCc1ccc(C(=O)N[C@@H](Cc2c[nH]c3ccccc23)C(=O)O)cc1", "Measured Result": 50.3}
{"Structure Smiles String": "O=C(N[C@@H](Cc1c[nH]c2ccccc12)C(=O)O)OCc1ccc(Cl)cc1", "Measured Result": 25.0}
{"Structure Smiles String": "O=C(N[C@@H](Cc1c[nH]c2ccccc12)C(=O)O)OCc1ccc(Br)cc1", "Measured Result": 90.3}
{"Structure Smiles String": "Cc1ccc(C(=O)N[C@@H](Cc2c[nH]c3ccccc23)C(=O)O)cc1C", "Measured Result": 62.6}
{"Structure Smiles String": "O=C(N[C@@H](Cc1c[nH]c2ccccc12)C(=O)O)c1ccc(C(F)(F)F)cc1", "Measured Result": 45.6}
